molecular target: MmΔIBBIMPα (Mus musculus); construct: made in house; test: AlphaScreen binding assay, MmΔIBBIMPα:T-ag-NLS-GFP interaction; conditions: single experiment (Figure 3); IMPα 5 nM, NLS 30 nM; read-out: IC50 MmΔIBBIMPα:T-ag-NLS-GFP
READOUT KIND: pIC50
Field pIC50 (float): negative decimal logarithm of the concentration in molar.

[
  {
    "SMILES REPR": "CC(C)(C)c1ccc(S(=O)(=O)/C=C/C#N)cc1",
    "READOUT KIND": "pIC50",
    "ASSAY RESULT": 4.51
  }
]

Enquiry: What does the data say about its pIC50? Entry: "CC(=O)OC[C@H]1O[C@@H]([S-])[C@H](OC(C)=O)[C@@H](OC(C)=O)[C@@H]1OC(C)=O.CCP(CC)CC.[Au+]"
Return: 7.30

====

target: His-tagged SV40 T-ag-NLS-GFP (NLS of simian virus SV40 large tumor antigen fused to GFP) (Simian Virus 40); assay: AlphaScreen or HTRF
READOUT KIND: Kd (nM)
Your answer is read as nM, so omit the unit and give the number.

Enquiry: What does the data say about its Kd? Entry: Mus musculus importin α deleted for the autoinhibitory IBB domain (MmΔIBBIMPα), biotinylated GST fusion protein (domain or fragment)
Return: 2.6

====

Listed below: % Inhibition of IMPα-NLS Interaction TgIMPα values for each entry.
molecular target: TgIMPα (Toxoplasma gondii, UniProt A0A125YID0); test: biochemical; assay type: binding; conditions: compounds at 10 μM; TgIMPα (5 nM):T-ag-NLS-GFP (30 nM); relative to 1% DMSO control
Sequence (A0A125YID0 entry or part of it): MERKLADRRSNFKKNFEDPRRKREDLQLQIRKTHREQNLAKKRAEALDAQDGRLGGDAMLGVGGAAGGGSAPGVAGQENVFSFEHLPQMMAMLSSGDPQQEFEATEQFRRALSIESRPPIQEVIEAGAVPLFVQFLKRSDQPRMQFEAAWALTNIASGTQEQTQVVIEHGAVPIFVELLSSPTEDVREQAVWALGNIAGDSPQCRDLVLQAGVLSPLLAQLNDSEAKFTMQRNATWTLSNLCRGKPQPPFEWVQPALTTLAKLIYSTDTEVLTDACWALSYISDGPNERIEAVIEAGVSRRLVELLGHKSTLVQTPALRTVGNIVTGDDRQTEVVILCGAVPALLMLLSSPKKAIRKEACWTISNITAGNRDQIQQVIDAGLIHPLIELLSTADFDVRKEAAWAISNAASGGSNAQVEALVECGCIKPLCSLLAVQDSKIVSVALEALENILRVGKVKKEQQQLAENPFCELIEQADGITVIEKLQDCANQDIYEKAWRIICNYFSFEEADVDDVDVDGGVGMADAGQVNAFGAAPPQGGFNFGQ
Your answer is read as %, so omit the unit and give the number.

[
  {
    "COMPOUND": "COc1ccc2c(c[n+](C)c3c4cc5c(cc4ccc23)OCO5)c1OC.[Cl-]",
    "ASSAY RESULT": 67
  }
]

Enquiry: What does the data say about its % Inhibition of IMPα-NLS Interaction TgIMPα? Entry: "CC(C)(C)c1ccc(S(=O)(=O)/C=C/C#N)cc1"
Return: 0

Enquiry: How about this compound: "CC(=O)OC[C@H]1O[C@@H]([S-])[C@H](OC(C)=O)[C@@H](OC(C)=O)[C@@H]1OC(C)=O.CCP(CC)CC.[Au+]"
Return: 90

Enquiry: How about this compound: "O=C(Nc1nc(-c2ccccn2)cs1)c1cncn1-c1ccccc1"
Return: 48

Enquiry: How about this compound: "O=C(Nc1ccc(N2CCNCC2)nc1)c1oc(-c2ccccc2)nc1C(F)(F)F"
Return: 26

Enquiry: How about this compound: CC[n+]1c(/C=C/C=C2/N(C)c3ccccc3C2(C)C)sc2ccccc21.[I-] [AC-93253 iodide]
Return: 72

Enquiry: How about this compound: Cl.NCC(O)c1cc(O)c(O)cc1F (centres unmarked) [6-Fluoronorepinephrine HCl]
Return: 67

Enquiry: How about this compound: "CC(C)(CN)c1nc(-c2ccc(Cl)c(O)c2)c(-c2ccnc(N)n2)[nH]1"
Return: 44

====

molecular target: TgIMPα (Toxoplasma gondii, UniProt A0A125YID0); assay: biochemical; type: binding; details: pooled, mean ± SEM (n = 3); read-out: IC50 TgIMPα:T-ag-NLS-GFP
READOUT KIND: IC50 (µM)
Your answer is read as µM, so omit the unit and give the number.

[
  {
    "COMPOUND": "CC(C)(C)c1ccc(S(=O)(=O)/C=C/C#N)cc1 [Bay 11-7085]",
    "IC50 / µM": 30.4
  }
]

Enquiry: What does the data say about its IC50? Entry: CC(=O)OC[C@H]1O[C@@H]([S-])[C@H](OC(C)=O)[C@@H](OC(C)=O)[C@@H]1OC(C)=O.CCP(CC)CC.[Au+] [auranofin]
Return: 0.08
